Assignment: determine reported Ki for the given molecules.
# systemTested: purified human plasma kallikrein (Homo sapiens (Human))
# test: biochemical
# Format: biochemical
# reportedConditions: read-out: Plasma Kallikrein Ki
Where a name gives a salt, the structure may show the parent alone.
Param answer (str): number followed by unit.

Recorded result, COC(=O)Nc1ccc2c(c1)NC(=O)CCCCC[C@H](N1CCC(c3c(F)ccc(Cl)c3F)=CC1=O)c1cc-2ccn1 [Example 219, TFA salt] , Ki: 0.00685 µM

Recorded result, COC(=O)Nc1ccc2c(c1)NC(=O)[C@H](C)CCC[C@H](N1CCC(c3c(F)ccc(C)c3F)=CC1=O)c1cc-2ccn1 , Ki: 0.00325 µM

Recorded result, CC(=O)Nc1ccc(Cl)c(F)c1C1=CC(=O)N([C@H]2CCC[C@@H](C)C(=O)Nc3ccccc3-c3ccnc2c3)CC1 , Ki: 0.297 µM

Recorded result, C[C@@H]1CCC[C@H](N2CCC(c3c(F)ccc(Cl)c3F)=CC2=O)c2cccc(c2)-c2ccccc2NC1=O , Ki: 0.125 µM

Recorded result, C[C@@H]1CCC[C@H](N2CCC(c3c(F)ccc(Cl)c3F)=CC2=O)c2cc(ccn2)-c2cc(Cl)c(O)c(Cl)c2NC1=O [Example 20, TFA salt] , Ki: 0.973 µM

Recorded result, COC(=O)Nc1ccc2c(c1)NC(=O)[C@H](C)CCC[C@H](N1CCC(c3cc(Cl)ccc3C(F)(F)F)=CC1=O)c1cc-2ccn1 [Example 36, TFA salt] , Ki: 0.008 µM

Recorded result, C[C@@H]1CCC[C@H](N2CCC(c3c(F)ccc(Cl)c3F)=CC2=O)c2cc(ccn2)-c2cc(Br)c(N)cc2NC1=O [Example 193, TFA salt] , Ki: 0.00391 µM

Recorded result, C[C@@H]1CCC[C@H](N2CCC(c3c(-c4cn[nH]c4)ccc(Cl)c3F)=CC2=O)c2cc(ccn2)-c2ccccc2NC1=O [Example 55, TFA salt] , Ki: 0.019 µM

Recorded result, C[C@@H]1CCC[C@H](N2CCC(c3c(-c4ccncc4)ccc(Cl)c3F)=CC2=O)c2cc(ccn2)-c2ccccc2NC1=O [Example 56, TFA salt] , Ki: 0.137 µM

Recorded result, COC(=O)Nc1ccc2c(c1)NC(=O)[C@H](C)CCC[C@H](n1ncc(-c3c(C#N)ccc(Cl)c3F)cc1=O)c1cc-2ccn1 [Example 79, TFA salt] , Ki: 0.003 µM

Recorded result, COC(=O)Nc1ccc2c(c1)NC(=O)[C@H](C)CCC[C@H](n1ncc(-c3c(F)ccc(Cl)c3F)cc1=O)c1cc-2ccn1 [Example 11, TFA salt] , Ki: 0.014 µM

====

# systemTested: UniProt P03951
# Sequence (P03951 whole entry, looked up): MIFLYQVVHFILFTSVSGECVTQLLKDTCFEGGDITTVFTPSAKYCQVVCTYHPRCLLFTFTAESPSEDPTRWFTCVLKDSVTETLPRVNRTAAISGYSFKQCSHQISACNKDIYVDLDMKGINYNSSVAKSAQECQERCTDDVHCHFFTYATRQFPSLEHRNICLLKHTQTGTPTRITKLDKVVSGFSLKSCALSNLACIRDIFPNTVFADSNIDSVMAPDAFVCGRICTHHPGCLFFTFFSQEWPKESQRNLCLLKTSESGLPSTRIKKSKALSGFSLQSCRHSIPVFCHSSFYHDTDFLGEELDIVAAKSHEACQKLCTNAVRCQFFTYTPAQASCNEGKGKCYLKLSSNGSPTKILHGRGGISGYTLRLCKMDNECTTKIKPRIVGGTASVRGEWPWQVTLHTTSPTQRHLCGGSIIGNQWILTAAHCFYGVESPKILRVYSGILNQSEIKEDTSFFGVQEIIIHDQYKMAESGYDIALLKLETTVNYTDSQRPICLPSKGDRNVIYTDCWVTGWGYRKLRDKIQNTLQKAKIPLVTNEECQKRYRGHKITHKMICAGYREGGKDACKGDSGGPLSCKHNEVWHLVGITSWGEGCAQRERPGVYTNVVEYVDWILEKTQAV
# Sequence (P03951 whole entry partner, looked up): as the sequence (P03951 whole entry, looked up) above
# test: biochemical
# Type: biochemical
# reportedConditions: read-out: Factor XIa Ki
Where a name gives a salt, the structure may show the parent alone.
measure: pKi
Answer as the number alone; pKi is minus log10 of concentration in mol/L.

Recorded result, C[C@@H]1CCC[C@H](n2ccc(-c3c(F)ccc(Cl)c3F)cc2=O)c2cc(ccn2)-c2ccc(N)cc2NC1=O [Example 91, TFA salt] , pKi: 9.25

Recorded result, C[C@@H]1CCC[C@H](N2CCC(c3c(Br)ccc(Cl)c3F)=CC2=O)c2cccc(c2)-c2cc(C(=O)O)ccc2NC1=O [Example 167] , pKi: 9.09

Recorded result, COC(=O)Nc1ccc2c(c1)NC(=O)[C@H](C)CCC[C@H](N1CC(C)C(c3c(F)ccc(Cl)c3F)=CC1=O)c1cc-2ccn1 (stereo partly shown) [Example 73, TFA salt] , pKi: 9.06

Recorded result, COc1ccc2c(c1)NC(=O)[C@H](C)CCC[C@H](N1CCC(c3c(F)ccc(Cl)c3F)=CC1=O)c1cc-2ccn1 [Example 17, TFA salt] , pKi: 7.34

Recorded result, C[C@@H]1CCC[C@H](N2CCC(c3c(F)ccc(Cl)c3F)=CC2=O)c2cccc(c2)-c2ccccc2NC1=O [Example 162] , pKi: 7.12

Recorded result, COC(=O)Nc1ccc2c(c1)NC(=O)[C@H](C)CCC[C@H](N1CCC(c3c(OC)ccc(Cl)c3F)=CC1=O)c1cc-2ccn1 [Example 1, TFA salt] , pKi: 9.06

Recorded result, COC(=O)c1ccc2c(c1)-c1cccc(c1)[C@@H](N1CCC(c3c(C(C)=O)ccc(Cl)c3F)=CC1=O)CCC[C@@H](C)C(=O)N2 [Example 172] , pKi: 6.85

Recorded result, C[C@@H]1CCC[C@H](N2CCC(c3c(C#N)ccc(C#N)c3F)=CC2=O)c2cc(ccn2)-c2ccccc2NC1=O [Example 46, TFA salt] , pKi: 6.49

Recorded result, COC(=O)Nc1ccc2c(c1)NC(=O)[C@H](C)CCC[C@H](n1ncc(-c3c(C#N)ccc(Cl)c3F)cc1=O)c1cc-2ccn1 [Example 79, TFA salt] , pKi: 9.26

Recorded result, C[C@@H]1CCC[C@H](N2CCC(c3c(F)ccc(Cl)c3F)=CC2=O)c2cc(ccn2)-c2cc(Br)ccc2NC1=O [Example 137] , pKi: 7.16

Recorded result, COC(=O)Nc1ccc2c(c1)NC(=O)C(C)(O)CCC[C@H](N1CCC(c3c(F)ccc(Cl)c3F)=CC1=O)c1cc-2ccn1 (stereo partly shown) [Example 123, TFA salt] , pKi: 7.70

Recorded result, COC(=O)Nc1ccc2c(c1)NC(=O)[C@H](C)CCC[C@H](N1CCC(c3c(OC(F)F)ccc(Cl)c3F)=CC1=O)c1cc-2ccn1 [Example 32, TFA salt] , pKi: 10.22

Recorded result, COC(=O)Nc1cc2n(n1)-c1ccnc(c1)[C@@H](N1CCC(c3c(F)ccc(Cl)c3F)=CC1=O)CCC[C@@H](C)C(=O)N2 [Example 224] , pKi: 6.53

Recorded result, Cc1ncn(-c2ccc(Cl)cc2C2=CC(=O)N([C@H]3CCC[C@@H](C)C(=O)Nc4ccccc4-c4ccnc3c4)CC2)n1 [Example 74, TFA salt] , pKi: 7.40

====

# systemTested: purified human plasma kallikrein (Homo sapiens (Human), UniProt P03952)
# Sequence (P03952 whole entry, looked up): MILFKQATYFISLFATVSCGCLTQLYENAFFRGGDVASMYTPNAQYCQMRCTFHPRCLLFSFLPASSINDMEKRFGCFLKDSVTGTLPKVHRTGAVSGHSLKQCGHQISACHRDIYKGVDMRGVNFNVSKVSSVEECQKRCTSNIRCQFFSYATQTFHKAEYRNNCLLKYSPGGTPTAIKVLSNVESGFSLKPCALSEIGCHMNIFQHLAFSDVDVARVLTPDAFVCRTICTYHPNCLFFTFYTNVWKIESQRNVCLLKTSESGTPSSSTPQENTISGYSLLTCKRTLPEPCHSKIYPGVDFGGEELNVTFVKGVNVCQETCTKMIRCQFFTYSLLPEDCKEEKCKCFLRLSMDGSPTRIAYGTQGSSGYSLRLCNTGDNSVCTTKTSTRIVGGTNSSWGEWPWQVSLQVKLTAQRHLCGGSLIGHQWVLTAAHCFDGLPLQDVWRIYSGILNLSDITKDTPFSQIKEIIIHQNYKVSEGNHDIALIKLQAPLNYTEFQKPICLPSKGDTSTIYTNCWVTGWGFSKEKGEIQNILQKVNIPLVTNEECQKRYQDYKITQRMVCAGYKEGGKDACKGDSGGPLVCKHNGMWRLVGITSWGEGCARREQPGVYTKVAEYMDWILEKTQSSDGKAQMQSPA
# Sequence (P03952 whole entry partner, looked up): as the sequence (P03952 whole entry, looked up) above
# test: biochemical
# Type: biochemical
# reportedConditions: read-out: Plasma Kallikrein Ki
Where a name gives a salt, the structure may show the parent alone.
measure: Ki

Value (Ki, purified human plasma kallikrein (Homo sapiens (Human), UniProt P03952)) for record C[C@@H]1CCC[C@H](N2CCC(c3c(C#N)ccc(Cl)c3F)=CC2=O)c2cc(ccn2)-c2ccc(C(N)=O)cc2NC1=O [Example 33, TFA salt] = 3 nM

Value (Ki, purified human plasma kallikrein (Homo sapiens (Human), UniProt P03952)) for record COC(=O)Nc1ccc2c(c1)NC(=O)[C@H](C)CCC[C@H](n1ncc(-c3c(Br)ccc(Cl)c3F)cc1=O)c1cc-2ccn1 [Example 78, TFA salt] = 5 nM

Value (Ki, purified human plasma kallikrein (Homo sapiens (Human), UniProt P03952)) for record CC1CCC[C@H](N2CCC(c3c(F)ccc(Cl)c3F)=CC2=O)c2cc(ccn2)-c2ccc(C(N)=O)cc2NC1=O (some centres unmarked) [Example 107, TFA salt] = 88 nM

Value (Ki, purified human plasma kallikrein (Homo sapiens (Human), UniProt P03952)) for record C[C@@H]1CCC[C@H](N2CCC(c3c(Br)ccc(Cl)c3F)=CC2=O)c2cc(ccn2)-c2c(ccc(F)c2F)NC1=O [Example 204, TFA salt] = 16 nM

Value (Ki, purified human plasma kallikrein (Homo sapiens (Human), UniProt P03952)) for record COCc1nnc(Nc2ccc3c(c2)NC(=O)[C@H](C)CCC[C@H](N2CCC(c4c(F)ccc(Cl)c4F)=CC2=O)c2cc-3ccn2)o1 [Example 41, TFA salt] = 2 nM

Value (Ki, purified human plasma kallikrein (Homo sapiens (Human), UniProt P03952)) for record COC(=O)c1ccc2c(c1)-c1cccc(c1)[C@@H](N1CCC(c3c(Br)ccc(Cl)c3F)=CC1=O)CCC[C@@H](C)C(=O)N2 [Example 163] = 224 nM

Value (Ki, purified human plasma kallikrein (Homo sapiens (Human), UniProt P03952)) for record COC(=O)Nc1ccc2c(c1)NC(=O)[C@H](C)CCC[C@H](N1CCC(c3c(C(C)=O)ccc(Cl)c3F)=CC1=O)c1cc(F)cc-2c1 [Example 191] = 19.2 nM

Value (Ki, purified human plasma kallikrein (Homo sapiens (Human), UniProt P03952)) for record C[C@@H]1CCC[C@H](N2CCC(c3c(F)ccc(Cl)c3F)=CC2=O)c2cc(ccn2)-c2cc(F)c(N)cc2NC1=O [Example 143] = 3.38 nM

====

Assignment: determine reported pKi for the given compounds.
# systemTested: purified human plasma kallikrein (Homo sapiens (Human), UniProt P03952)
# test: biochemical
# Format: biochemical
# reportedConditions: read-out: Plasma Kallikrein Ki
Counter-ions that a name gives are not always drawn.
Answer as the number alone; pKi is minus log10 of concentration in mol/L.

Recorded result, Cc1nnc(Nc2ccc3c(c2)NC(=O)[C@H](C)CCC[C@H](N2CCC(c4c(F)ccc(Cl)c4F)=CC2=O)c2cc-3ccn2)o1 [Example 21, TFA salt] , pKi: 9.00

Recorded result, COC(=O)c1ccc2c(c1)-c1cccc(c1)[C@@H](N1CCC(c3c(C#N)ccc(C#N)c3F)=CC1=O)CCC[C@@H](C)C(=O)N2 , pKi: 5.72

Recorded result, C[C@@H]1CCC[C@H](N2CCC(c3c(C#N)ccc(Cl)c3F)=CC2=O)c2cc(ccn2)-c2cc(F)c(F)cc2NC1=O [Example 211, TFA salt] , pKi: 8.19

Recorded result, COC(=O)Nc1ccc2c(c1)NC(=O)C(C)(O)CCC[C@H](N1CCC(c3c(F)ccc(Cl)c3F)=CC1=O)c1cc-2ccn1 (stereo partly shown) [Example 123, TFA salt] , pKi: 7.58

Recorded result, C[C@@H]1CCC[C@H](N2CCC(c3c(Br)ccc(Cl)c3F)=CC2=O)c2cccc(c2)-c2cc(C(=O)O)ccc2NC1=O , pKi: 7.70

Recorded result, C[C@@H]1CCC[C@H](N2CCC(c3c(C#N)ccc(Cl)c3F)=CC2=O)c2cc(ccn2)-c2c(F)cc(F)cc2NC1=O [Example 207, TFA salt] , pKi: 8.24

Recorded result, COC(=O)Nc1ccc2c(c1)NC(=O)[C@H](C)CCC[C@H](N1CCC(c3c(OC)ccc(Cl)c3F)=CC1=O)c1cc-2ccn1 [Example 1, TFA salt] , pKi: 8.00
